tested on: ryegrass, Italian; test: Test C postemergence; format: in vivo, Lolium multiflorum; conditions: 125 g ai/ha, postemergence, 10 days; 0 to 100 scale, 0 no effect, 100 complete control
Here the recorded Plant response rating, Ryegrass, Italian is given for each entry.

>  <querySmiles>
COC[C@H]1CN(C(=O)c2cc(-n3cnc(C4CC4)n3)ccc2OC)c2cccc(Cl)c2O1

>  <Plant response rating, Ryegrass, Italian>
70

$$$$

// Plant response rating, Ryegrass, Italian lookup, key: CCc1ccc(-n2cnc(C(C)C)n2)cc1C(=O)N1C[C@H](C)Oc2c(C)cccc21 70

Plant response rating, Ryegrass, Italian lookup needed for Cc1cc(-n2cnc(C(C)C)n2)cc(C(=O)N2C[C@H](C)Oc3c(Cl)cccc32)c1Cl , thanks. 30

----------
system: wheat; assay: Test A postemergence; assay type: in vivo, Triticum aestivum; conditions: 125 g ai/ha, postemergence, 10 days; 0 to 100 scale, 0 no effect, 100 complete control
Text: […]
reportedProperty: Wheat plant response rating
Please give only the number in your answer, with no unit.

>  <querySmiles>
CCc1ncn(-c2cccc(C(=O)N3C[C@H](C)Oc4c(Cl)cccc43)c2)n1

>  <Wheat plant response rating>
30

$$$$
>  <querySmiles>
C#CCOc1ccc(-n2cnc(C(C)C)n2)cc1C(=O)N1C[C@H](C)Oc2c(Cl)cccc21

>  <Wheat plant response rating>
30

$$$$

Identify the measured Wheat plant response rating of Cc1ccc(-n2cnc(CO)n2)cc1C(=O)N1C[C@H](C)Oc2c(Cl)cccc21 for wheat. 30

----------
system: galium; experiment: Test C postemergence; assay type: in vivo, Galium aparine; settings: 125 g ai/ha, postemergence, 10 days; 0 to 100 scale, 0 no effect, 100 complete control
reportedProperty: Plant response rating, Galium
I'd appreciate a reply containing only the number, no unit.

Below are worked cases with known answers.
>  <molecule>
COC[C@H]1CN(C(=O)c2cc(-n3cnc(C(C)(C)C)n3)ccc2C)c2cccc(Cl)c2O1 [Compound 264]

>  <reportedProperty>
Plant response rating, Galium

>  <testValue>
100

$$$$
>  <molecule>
C[C@H]1CN(C(=O)c2cccc(-n3cnc(C(C)(C)O)n3)c2)c2cccc(Cl)c2O1 [Compound 169]

>  <reportedProperty>
Plant response rating, Galium

>  <testValue>
100

$$$$

Need Plant response rating, Galium of CC(C)c1ncn(-c2cccc(C(=O)N3CC(C(F)(F)F)Oc4c(Cl)cccc43)c2)n1 (single isomer, unassigned) [Compound 289] , thanks. 100

----------
tested on: corn; experiment: Test C postemergence; type: in vivo, Zea mays; conditions: Postemergence, 125 g ai/ha; 0 to 100 scale (0 no effect, 100 complete control), 10 days
reportedProperty: Plant response rating, Corn
Just the number.

Known Plant response rating, Corn results, listed for orientation:
>  <compound>
Cc1cccc2c1OC(C(F)(F)F)CN2C(=O)c1ccnc(-n2cnc(C(C)C)n2)c1 (single isomer, unassigned) [Compound 320]

>  <testValue>
10

$$$$
>  <compound>
Cc1cccc2c1OC(C(F)(F)F)CN2C(=O)c1ccnc(-n2cnc(C(C)C)n2)c1 (single isomer, unassigned) [Compound 328]

>  <testValue>
20

$$$$
>  <compound>
Cc1cccc2c1O[C@@H](C)CN2C(=O)c1cccc(-n2cnc(N)n2)c1 [Compound 308]

>  <testValue>
10

$$$$
>  <compound>
CCOC[C@H]1CN(C(=O)c2cc(-n3cnc(CC)n3)cc3c2OCCO3)c2cccc(Cl)c2O1 [Compound 387]

>  <testValue>
10

$$$$
>  <compound>
CCOCC1CN(C(=O)c2cc(-n3cnc(C(C)(C)C)n3)ccc2OC)c2cccc(Cl)c2O1 (centres unmarked) [Compound 379]

>  <testValue>
30

$$$$
>  <compound>
Cc1ncn(-c2ccc(C)c(C(=O)N3CC(C(F)(F)F)Oc4c(Cl)cccc43)c2)n1 (centres unmarked) [Compound 349]

>  <testValue>
80

$$$$
>  <compound>
CCc1ncn(-c2cccc(C(=O)N3CC(C(F)(F)F)Oc4c(C)cccc43)c2)n1 (centres unmarked) [Compound 344]

>  <testValue>
30

$$$$
>  <compound>
Cc1ccc(-n2cncn2)cc1C(=O)N1CC(C(F)(F)F)Oc2c(Cl)cccc21 (centres unmarked) [Compound 346]

>  <testValue>
10

$$$$

Entry Cc1ncnn1-c1cc(C(=O)N2CC(C(F)(F)F)Oc3c(Cl)cccc32)ccn1 (racemic) [Compound 333] has what Plant response rating, Corn? 10

Need Plant response rating, Corn of Cc1ncn(-c2cc(C(=O)N3CC(C(F)(F)F)Oc4c(Cl)cccc43)ccn2)n1 (centres unmarked) [Compound 321] , thanks. 50

What value of Plant response rating, Corn has been reported for the following compound? Cc1ccc(-n2cnc(CC#N)n2)cc1C(=O)N1C[C@H](C)Oc2c(Cl)cccc21 [Compound 364] 30

Which Plant response rating, Corn value is on record for Cc1ncn(-c2ccc(F)c(C(=S)N3C[C@H](C)Oc4c(C)cccc43)c2)n1 [Compound 362] ? 30

# lookup: Plant response rating, Corn of CCOc1ncn(-c2cccc(C(=O)N3C[C@H](C)Oc4c(Cl)cccc43)c2)n1 [Compound 311] 10

Any idea what its Plant response rating, Corn is? The compound is Cc1ncn(-c2ccc(F)c(C(=O)N3C[C@H](C)Oc4c(C)cccc43)c2)n1 [Compound 361] 20
